Molecular target: DHFR from E. coli (Escherichia coli, UniProt P0ABQ4)
Construct: made in house
Experiment: Fluorimetric binding assay, quenching of DHFR tryptophan emission (λexc = 280 nm)
Details: standard free energy equation from ΔH° and TΔS°
Observation type: ΔG° (kcal/mol)
Numbers only; they are read as kcal/mol.

Molecule	Observation type	Quantitative result
O=C(O)c1ccc(P(c2ccccc2)c2ccccc2)cc1.O=C(O)c1ccc(P(c2ccccc2)c2ccccc2)cc1.O=C(O)c1ccc(P(c2ccccc2)c2ccccc2)cc1.[Cl][Au] [^4L3AuCl]	ΔG°	-7.23
O=C(O)c1ccc(P(c2ccccc2)c2ccccc2)cc1.O=C(O)c1ccc(P(c2ccccc2)c2ccccc2)cc1.[Cl][Au] [^4L2AuCl, (4COOHPh-Ph2P)2AuCl]	ΔG°	-7.31

Reported ΔG°, molecule O=C(O)c1ccccc1P(c1ccccc1)c1ccccc1.O=C(O)c1ccccc1P(c1ccccc1)c1ccccc1.O=C(O)c1ccccc1P(c1ccccc1)c1ccccc1.[Cl][Au] [^2L3AuCl] : ____
-6.8

====

Listing of recorded pKd by entry.
Target: DHFR/NADPH (Escherichia coli, UniProt P0ABQ4)
Sequence (P0ABQ4 whole entry): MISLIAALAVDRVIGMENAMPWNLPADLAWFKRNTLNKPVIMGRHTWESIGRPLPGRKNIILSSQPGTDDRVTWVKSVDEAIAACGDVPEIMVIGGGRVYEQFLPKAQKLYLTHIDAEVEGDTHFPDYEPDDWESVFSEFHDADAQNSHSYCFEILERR
Assay: Fluorimetric binding assay on DHFR in presence of saturating NADPH
Details: 25 °C, saturating NADPH (50 µM); read-out: Kd ± s.d. (25 °C) in presence of saturating NADPH
Hey, just a heads up that pKd is the negative log base 10 of the concentration in molar.

Some entries whose results are on file:
Compound	Target or system	Observation type	Quantitative result
COC(=O)c1ccc(P(c2ccccc2)c2ccccc2)cc1.COC(=O)c1ccc(P(c2ccccc2)c2ccccc2)cc1.COC(=O)c1ccc(P(c2ccccc2)c2ccccc2)cc1.[Cl][Au] [^4MeL3AuCl]	DHFR/NADPH (Escherichia coli, UniProt P0ABQ4)	pKd	5.34
O=C(O)c1ccc(P(c2ccccc2)c2ccccc2)cc1.O=C(O)c1ccc(P(c2ccccc2)c2ccccc2)cc1.[Cl][Au] [^4L2AuCl, (4COOHPh-Ph2P)2AuCl]	DHFR/NADPH (Escherichia coli, UniProt P0ABQ4)	pKd	5.63

Alright, here's another compound for you.
Reported pKd, compound O=C(O)c1ccc(P(c2ccccc2)c2ccccc2)cc1.O=C(O)c1ccc(P(c2ccccc2)c2ccccc2)cc1.O=C(O)c1ccc(P(c2ccccc2)c2ccccc2)cc1.[Cl][Au] [^4L3AuCl] : ____
5.30

====

Listing of recorded ΔS° by entry.
Biological target: DHFR from E. coli (Escherichia coli, UniProt P0ABQ4)
Construct: made in house
Test: Fluorimetric binding assay, quenching of DHFR tryptophan emission (λexc = 280 nm)
Conditions: van't Hoff equation from Kd at 25, 10 and −4 °C
Numbers only; they are read as cal/mol K.

Some entries whose results are on file:
Compound	ΔS° [cal/mol K]
O=C(O)c1ccc(P(c2ccccc2)c2ccccc2)cc1.O=C(O)c1ccc(P(c2ccccc2)c2ccccc2)cc1.O=C(O)c1ccc(P(c2ccccc2)c2ccccc2)cc1.[Cl][Au] [^4L3AuCl]	7.34
O=C(O)c1ccc(P(c2ccccc2)c2ccccc2)cc1.O=C(O)c1ccc(P(c2ccccc2)c2ccccc2)cc1.[Cl][Au] [^4L2AuCl, (4COOHPh-Ph2P)2AuCl]	17.76
O=C(O)c1ccc(P(c2ccccc2)c2ccccc2)cc1.O=C(O)c1ccc(P(c2ccccc2)c2ccccc2)cc1.O=C(O)c1ccc(P(c2ccccc2)c2ccccc2)cc1.O=S(=O)([O][Au])C(F)(F)F [^4L3AuTfl]	3.92

Alright, here's another compound for you.
Reported ΔS°, compound O=C(O)c1ccccc1P(c1ccccc1)c1ccccc1.O=C(O)c1ccccc1P(c1ccccc1)c1ccccc1.O=C(O)c1ccccc1P(c1ccccc1)c1ccccc1.[Cl][Au] [^2L3AuCl] : ____
9.58
